test: Solubility tests of active agent in solvent systems; assay type: physicochemical; conditions: aqueous with cosolvent or surfactant or cyclodextrin, thermodynamic from solid; Table 5: 1.5% sodium taurocholeate + 1.5% polysorbate 80 + 15% ethanol + 10% PEG 400 + ammonium acetate pH 3.1; read-out: Solubilized miconazole / ketoconazole / itraconazole ± S.D.
OBSERVATION TYPE: solubility (mg/mL)

1. CCC(C)n1ncn(-c2ccc(N3CCN(c4ccc(OCC5COC(Cn6cncn6)(c6ccc(Cl)cc6Cl)O5)cc4)CC3)cc2)c1=O (stereo not drawn) = 0.04
2. Clc1ccc(COC(Cn2ccnc2)c2ccc(Cl)cc2Cl)c(Cl)c1 (stereo not drawn) = 34.8
3. CC(=O)N1CCN(c2ccc(OCC3COC(Cn4ccnc4)(c4ccc(Cl)cc4Cl)O3)cc2)CC1 (stereo not drawn) = 142

====

experiment: Solubility tests of active agent in solvent systems; type: physicochemical; settings: pH 3.1, aqueous with cosolvent or surfactant or cyclodextrin, thermodynamic from solid, Table 5: 3% polysorbate 80 + 15% ethanol + 10% PEG 400 + ammonium acetate pH 3.1; read-out: Solubilized miconazole / ketoconazole / itraconazole ± S.D.
// reported solubility for each item listed
OBSERVATION TYPE: solubility (mg/mL)

1. CC(=O)N1CCN(c2ccc(OCC3COC(Cn4ccnc4)(c4ccc(Cl)cc4Cl)O3)cc2)CC1 (stereo not drawn) [ketoconazole] = 140
2. CCC(C)n1ncn(-c2ccc(N3CCN(c4ccc(OCC5COC(Cn6cncn6)(c6ccc(Cl)cc6Cl)O5)cc4)CC3)cc2)c1=O (stereo not drawn) [itraconazole] = 0.054
3. Clc1ccc(COC(Cn2ccnc2)c2ccc(Cl)cc2Cl)c(Cl)c1 (stereo not drawn) [miconazole] = 22

====

test: Solubility tests of active agent in solvent systems; type: physicochemical; conditions: pH 3.1, aqueous with cosolvent or surfactant or cyclodextrin, thermodynamic from solid, Table 5: 1.5% sodium taurocholeate + 1.5% polysorbate 80 + 25% ethanol + ammonium acetate pH 3.1; read-out: Solubilized miconazole / ketoconazole / itraconazole ± S.D.
Below is a list of entries, each paired with its recorded solubility value.
OBSERVATION TYPE: solubility (mg/mL)

1) Clc1ccc(COC(Cn2ccnc2)c2ccc(Cl)cc2Cl)c(Cl)c1 (stereo not drawn) = 32.1
2) CC(=O)N1CCN(c2ccc(OCC3COC(Cn4ccnc4)(c4ccc(Cl)cc4Cl)O3)cc2)CC1 (stereo not drawn) = 137
3) CCC(C)n1ncn(-c2ccc(N3CCN(c4ccc(OCC5COC(Cn6cncn6)(c6ccc(Cl)cc6Cl)O5)cc4)CC3)cc2)c1=O (stereo not drawn) = 0.04

====

assay: Solubility tests of active agent in solvent systems; assay type: physicochemical; details: 0.1% polysorbate 80 + 15% ethanol + ammonium acetate pH 3.1, pH 3.1, aqueous with cosolvent or surfactant or cyclodextrin, thermodynamic from solid, Table 3: 0.1% polysorbate 80 + 15% ethanol + ammonium acetate pH 3.1; read-out: Solubilized miconazole ± S.D.
OBSERVATION TYPE: solubility (mg/mL)

1) Clc1ccc(COC(Cn2ccnc2)c2ccc(Cl)cc2Cl)c(Cl)c1 (stereo not shown) = 10.8

====

test: Solubility tests of active agent in solvent systems; assay type: physicochemical; details: 3% polysorbate 20 in water, aqueous with cosolvent or surfactant or cyclodextrin, thermodynamic from solid, 3% polysorbate 20 in water; read-out: Solubilized miconazole ± S.D.
OBSERVATION TYPE: solubility

1. Clc1ccc(COC(Cn2ccnc2)c2ccc(Cl)cc2Cl)c(Cl)c1 (stereo not shown) = 0.81 mg/mL
